measurement_target: T1, evolved variant of mature Streptomyces mobaraensis transglutaminase, including a two amino acid linker and … (Streptomyces mobaraensis, UniProt P81453 79-407)
T1 chain: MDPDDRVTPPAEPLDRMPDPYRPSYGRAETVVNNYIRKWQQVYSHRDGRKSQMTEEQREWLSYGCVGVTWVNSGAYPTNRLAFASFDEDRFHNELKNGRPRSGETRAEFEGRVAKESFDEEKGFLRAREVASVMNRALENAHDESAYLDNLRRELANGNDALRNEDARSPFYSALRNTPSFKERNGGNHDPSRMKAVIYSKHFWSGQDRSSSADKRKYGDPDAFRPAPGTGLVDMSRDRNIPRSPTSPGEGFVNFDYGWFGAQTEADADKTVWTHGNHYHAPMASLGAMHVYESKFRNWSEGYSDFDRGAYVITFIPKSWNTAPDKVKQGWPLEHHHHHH
experiment_notes: cell-based or functional assay
A collection of binders and their measured Inhibition

Recorded results for 2 binders are shown here.
- binder: "MDNGAGSETKSYAETYRVTAIDVANINALNESAPAASSAGPSFRAP [pro-peptide variant E7S, L18V, D21I (Method B)]"
  test_value: "> 2 fold"
- binder: "MINGAGEETKSYAETYRLTATQVANINALNESAPAASSAGPSFRAP [pro-peptide variant D2I, D21T, D22Q (Method B)]"
  test_value: "> 1.2 fold"

For the next question, use this binder.
Q) Suppose we examine the binder MDNGAGSETKSYAETYRVTARDVANINALNESAPAASSAGPSFRAP [pro-peptide variant E7S, L18V, D21R (Method B)] ; what Inhibition value has been reported?
A) > 2 fold
